Molecular target: T1, human immunoglobulin E (hIgE) (human, UniProt P01854-1 1-428)
T1 construct: also called human IgE; Native IgE (Abcam)
T1 sequence (P01854 whole entry): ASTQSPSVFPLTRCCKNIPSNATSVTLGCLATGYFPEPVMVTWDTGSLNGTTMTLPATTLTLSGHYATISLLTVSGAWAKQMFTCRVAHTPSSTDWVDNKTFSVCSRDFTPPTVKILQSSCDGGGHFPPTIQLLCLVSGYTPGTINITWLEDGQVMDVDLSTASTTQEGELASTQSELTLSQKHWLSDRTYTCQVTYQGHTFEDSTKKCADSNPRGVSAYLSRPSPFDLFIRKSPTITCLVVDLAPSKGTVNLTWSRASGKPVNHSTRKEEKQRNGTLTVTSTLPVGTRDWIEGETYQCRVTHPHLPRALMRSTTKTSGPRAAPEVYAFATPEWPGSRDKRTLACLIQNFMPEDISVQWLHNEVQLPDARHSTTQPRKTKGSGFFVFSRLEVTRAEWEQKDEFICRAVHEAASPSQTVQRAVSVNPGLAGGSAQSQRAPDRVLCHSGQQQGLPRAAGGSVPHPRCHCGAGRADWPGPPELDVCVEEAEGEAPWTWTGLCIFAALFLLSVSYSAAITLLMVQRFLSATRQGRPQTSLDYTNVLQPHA
Assay: SPR (Biacore), pH 7.4
Value kind: Kd (nM)
Quick note: give the figure in nM, leave out the unit.

As a guide, the following entries are already answered.
{"columns": ["Binder", "Kd (nM)"],
 "data": [
  ["OmaVH15G55H - VL3S31H (antibody, V domains shown) VH: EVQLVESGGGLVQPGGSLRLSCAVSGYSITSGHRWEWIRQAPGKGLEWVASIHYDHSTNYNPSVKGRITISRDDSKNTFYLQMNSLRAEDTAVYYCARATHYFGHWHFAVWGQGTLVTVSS VL: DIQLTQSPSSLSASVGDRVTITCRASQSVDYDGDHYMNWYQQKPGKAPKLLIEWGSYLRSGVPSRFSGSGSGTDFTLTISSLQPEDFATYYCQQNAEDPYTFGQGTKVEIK", 1.33],
  ["OmaVH15G55H - VL3D28HS31H (antibody, V domains shown) VH: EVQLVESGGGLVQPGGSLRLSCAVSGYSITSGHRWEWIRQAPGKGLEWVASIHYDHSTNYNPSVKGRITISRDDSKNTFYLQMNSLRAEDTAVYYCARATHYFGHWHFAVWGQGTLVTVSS VL: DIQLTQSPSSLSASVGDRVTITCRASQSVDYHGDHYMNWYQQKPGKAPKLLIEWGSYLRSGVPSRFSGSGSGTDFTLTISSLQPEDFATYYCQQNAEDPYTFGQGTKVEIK", 2.52]
]}

Now for the binder whose Kd we want.
Give its Kd value. Item: OMA VH15 - VL3D28HS31H (antibody, V domains shown) VH: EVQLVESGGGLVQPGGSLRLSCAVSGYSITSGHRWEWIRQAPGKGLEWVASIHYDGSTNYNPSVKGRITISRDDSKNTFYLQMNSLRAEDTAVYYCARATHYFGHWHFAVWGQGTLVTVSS VL: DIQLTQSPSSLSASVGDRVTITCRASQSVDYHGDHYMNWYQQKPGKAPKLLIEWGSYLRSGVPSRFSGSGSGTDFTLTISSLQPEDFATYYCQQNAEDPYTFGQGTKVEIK
1.1

Origin of measurements: patent US20220177604A1
